Origin of measurements: patent US7351690B2

target under test: hMC3-R (Homo sapiens)
Construct: expressed in transfected cells
Sequence (P41968 whole entry): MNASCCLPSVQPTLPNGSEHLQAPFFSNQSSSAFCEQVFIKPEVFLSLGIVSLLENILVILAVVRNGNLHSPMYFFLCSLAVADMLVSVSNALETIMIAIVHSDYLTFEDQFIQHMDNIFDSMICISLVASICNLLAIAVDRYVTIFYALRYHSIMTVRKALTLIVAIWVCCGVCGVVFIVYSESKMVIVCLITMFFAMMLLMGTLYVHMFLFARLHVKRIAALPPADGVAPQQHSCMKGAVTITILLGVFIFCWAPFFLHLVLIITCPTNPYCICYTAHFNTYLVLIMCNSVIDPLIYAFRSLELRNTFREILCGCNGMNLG
procedure text: competitive inhibition binding assay, 125I-NDP-alpha-MSH, hMC3-R membranes
test settings: 1 μM test peptide; 0.4 nM 125I-NDP-alpha-MSH; hMC3-R membranes
Square brackets hold non-standard residues; d marks the D form. Ends that are not written are not given here. Nle = CCCC[C@H](N)C(=O)O
// reported % Inhibition at 1 μM at Melanocortin Receptor 3 for each item listed
experimental readout: % Inhibition at 1 μM at Melanocortin Receptor 3 (%)

{"columns": ["substance", "target under test", "obs value"],
 "data": [
  ["Ac-Ser-Tyr-Ser-Nle-Glu-His-Phe-Arg-Trp-Gly-Lys-D-Cys-Pro-Val-NH2 (Ac-SYS[Nle]EHFRWGK[dC]PV-NH2; not fully specified (bridges); printed as Ac-Ser-Tyr-Ser-Nle-Glu-His-Phe-Arg-Trp-Gly-Lys-D-Cys-Pro-Val-NH2; numbers in words are those of the source; also: oxorhenium(V) N3S1 chelate (Re(V)=O)) [2-3]", "hMC3-R (Homo sapiens)", 41],
  ["Tyr-Val-Nle-Gly-His-D-Phe-Arg-Trp-Asp-Cys-Arg-Phe-NH2 (YV[Nle]GH[dF]RWDCRF-NH2; also: Re complex) [3-3]", "hMC3-R (Homo sapiens)", 95],
  ["Tyr-Val-Nle-Gly-His-Cys-D-Phe-Arg-Trp-Asp-Arg-Phe-NH2 [3-8] (YV[Nle]GHC[dF]RWDRF-NH2; numbers in words are those of the source; also: oxorhenium(V) N3S1 chelate complex (Re=O))", "hMC3-R (Homo sapiens)", 60],
  ["Ac-Ser-Tyr-Ser-Nle-Glu-His-Phe-Arg-Trp-Gly-Cys-Lys-Pro-Val-NH2 (Ac-SYS[Nle]EHFRWGCKPV-NH2; not fully specified (bridges); printed as Ac-Ser-Tyr-Ser-Nle-Glu-His-Phe-Arg-Trp-Gly-Cys-Lys-Pro-Val-NH2; numbers in words are those of the source; also: oxorhenium(V) N3S1 chelate (Re(V)=O)) [1-4]", "hMC3-R (Homo sapiens)", 0],
  ["Ac-Ser-Tyr-Ser-Cys-Nle-Glu-His-Phe-Arg-Trp-Gly-Lys-Pro-Val-NH2 (chain 1 Ac-SYSC[Nle]; chain 2 EHFRWGKPV-NH2; not fully specified (bridges); printed as Ac-Ser-Tyr-Ser-Cys-Nle-Glu-His-Phe-Arg-Trp-Gly-Lys-Pro-Val-NH2; also: oxorhenium(V) N3S1 chelate (Re(V)=O)) [1-11]", "hMC3-R (Homo sapiens)", 18],
  ["Tyr-Val-Nle-Gly-His-D-Phe-Cys-Trp-Asp-Arg-Phe-NH2 (YV[Nle]GH[dF]CWDRF-NH2; numbers in words are those of the source; also: oxorhenium(V) N3S1 chelate complex (Re=O)) [5-5]", "hMC3-R (Homo sapiens)", 15],
  ["Ac-Ser-Tyr-Ser-Nle-D-Cys-Glu-His-Phe-Arg-Trp-Gly-Lys-Pro-Val-NH2 (Ac-SYS[Nle][dC]EHFRWGKPV-NH2; numbers in words are those of the source; also: oxorhenium(V) N3S1 chelate via Cys (Re(V)=O)) [2-10]", "hMC3-R (Homo sapiens)", 0]
]}
